# TEST_SYSTEM: human histamine H3 receptor (Homo sapiens)
# Sequence (Q9Y5N1 whole entry): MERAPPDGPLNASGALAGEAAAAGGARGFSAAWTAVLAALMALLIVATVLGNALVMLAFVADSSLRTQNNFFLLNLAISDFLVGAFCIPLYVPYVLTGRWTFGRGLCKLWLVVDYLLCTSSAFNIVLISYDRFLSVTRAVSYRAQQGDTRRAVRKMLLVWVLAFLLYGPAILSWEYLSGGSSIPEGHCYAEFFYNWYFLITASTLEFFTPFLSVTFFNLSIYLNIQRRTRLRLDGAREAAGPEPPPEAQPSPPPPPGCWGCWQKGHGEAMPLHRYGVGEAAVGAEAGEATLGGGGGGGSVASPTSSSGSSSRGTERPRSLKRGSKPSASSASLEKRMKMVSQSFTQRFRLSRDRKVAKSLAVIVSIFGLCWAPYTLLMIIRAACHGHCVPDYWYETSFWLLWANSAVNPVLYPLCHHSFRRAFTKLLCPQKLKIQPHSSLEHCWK
# ASSAY_TEXT: CRE-SPAP gene transcription in forskolin-stimulated CHO-H3-SPAP cells
# TEST_CONDITIONS: Log KD values, CRE-SPAP; agonist proxyfan
Entries and their Kd values follow.
Express it in µM; write the number only.

Here's what some known entries look like.
1) CC(C1=C(CCN(C)C)Cc2ccccc21)c1ccccn1 (stereo not shown)	5.75
2) CN(C)CCC(c1ccc(Cl)cc1)c1ccccn1 (stereo not shown)	4.07
3) Cc1ccc(/C(=C\CN2CCCC2)c2ccccn2)cc1	5.89

Turning to the following molecule.
Provide the documented Kd with human histamine H3 receptor (Homo sapiens) as the system for Br.Br.c1nc(CCCC2CCNCC2)c[nH]1
0.0158

Source: paper PMC2430196
